I'd appreciate it if you could supply pIC50 values for the items below.
experiment: Inhibition of perforin (unknown origin)-mediated 51Cr-labelled human Jurkat cell lysis preincubated with protein for 30 mins followed by cell addition measured after 4 hrs by gamma counting method
One number for each entry, as −log10 of the molar value.

CN1Cc2cc(-c3ccc(-c4cncc(NS(=O)(=O)c5ccccn5)c4)s3)ccc2C1=O; 5.97
CN1Cc2cc(-c3ccc(-c4cncc(NS(=O)(=O)c5ccc(-c6ccno6)s5)c4)s3)ccc2C1=O; 5.15
CN1Cc2cc(-c3ccc(-c4cccc(NS(=O)(=O)c5ccc(F)cc5F)c4)s3)ccc2C1=O; 5.24
CN1Cc2cc(-c3ccc(-c4cncc(NS(=O)(=O)c5cccc(F)c5)c4)s3)ccc2C1=O; 4.70
CN1Cc2cc(-c3ccc(-c4cncc(NS(=O)(=O)c5ccccc5F)c4)s3)ccc2C1=O; 5.69
CN1Cc2cc(-c3ccc(-c4cncc(NS(=O)(=O)c5ccc(F)c(F)c5)c4)s3)ccc2C1=O; 4.73
CN1Cc2cc(-c3ccc(-c4cncc(NS(=O)(=O)c5cccc(OC(F)(F)F)c5)c4)s3)ccc2C1=O; 5.85
CN1Cc2cc(-c3ccc(-c4cncc(NS(=O)(=O)c5ccc(Br)cc5)c4)s3)ccc2C1=O; 5.06

List pIC50 for every entry below, keeping the order given.
1. CN1Cc2cc(-c3ccc(-c4cncc(NS(=O)(=O)c5cccs5)c4)s3)ccc2C1=O
2. CCOC(=O)c1ccc(S(=O)(=O)Nc2cncc(-c3ccc(-c4ccc5c(c4)CN(C)C5=O)s3)c2)cc1
3. CN1Cc2cc(-c3ccc(-c4cncc(NS(=O)(=O)c5ccccc5C(F)(F)F)c4)s3)ccc2C1=O
4. CN1Cc2cc(-c3ccc(-c4cnc(F)c(NS(=O)(=O)c5ccccn5)c4)s3)ccc2C1=O
5. CN1Cc2cc(-c3ccc(-c4cncc(NS(=O)(=O)c5ccc(C(=O)O)cc5)c4)s3)ccc2C1=O
6. CN1Cc2cc(-c3ccc(-c4cncc(NS(=O)(=O)c5ccc([N+](=O)[O-])cc5)c4)s3)ccc2C1=O
7. Cc1cc(C)n(-c2ccc(S(=O)(=O)Nc3cncc(-c4ccc(-c5ccc6c(c5)CN(C)C6=O)s4)c3)cc2)n1

1: 5.97; 2: 4.71; 3: 5.84; 4: 5.39; 5: 6.12; 6: 5.56; 7: 4.72

Can you give me pIC50 for all of these, one by one?
1. Cc1ccc(S(=O)(=O)Nc2cncc(-c3ccc(-c4ccc5c(c4)CN(C)C5=O)s3)c2)cc1Cl
2. CN1Cc2cc(-c3ccc(-c4cncc(NS(=O)(=O)c5ccc(C#N)cc5)c4)s3)ccc2C1=O
3. CN1Cc2cc(-c3ccc(-c4cncc(NS(=O)(=O)c5ccccc5[N+](=O)[O-])c4)s3)ccc2C1=O
4. CN1Cc2cc(-c3ccc(-c4cncc(NS(=O)(=O)c5ccccc5C#N)c4)s3)ccc2C1=O

1: 5.09; 2: 5.29; 3: 5.18; 4: 5.04
